Numbers sourced from patent US20230066011A1.

target: LRRK2 (Homo sapiens, UniProt Q5S007); test: LRRK2 enzyme inhibition, ADP-Glo kinase assay; type: biochemical; design: purchased Invitrogen PR8604B; conditions: ATP 10 μM
Sequence (Q5S007 970-2527 limits assumed): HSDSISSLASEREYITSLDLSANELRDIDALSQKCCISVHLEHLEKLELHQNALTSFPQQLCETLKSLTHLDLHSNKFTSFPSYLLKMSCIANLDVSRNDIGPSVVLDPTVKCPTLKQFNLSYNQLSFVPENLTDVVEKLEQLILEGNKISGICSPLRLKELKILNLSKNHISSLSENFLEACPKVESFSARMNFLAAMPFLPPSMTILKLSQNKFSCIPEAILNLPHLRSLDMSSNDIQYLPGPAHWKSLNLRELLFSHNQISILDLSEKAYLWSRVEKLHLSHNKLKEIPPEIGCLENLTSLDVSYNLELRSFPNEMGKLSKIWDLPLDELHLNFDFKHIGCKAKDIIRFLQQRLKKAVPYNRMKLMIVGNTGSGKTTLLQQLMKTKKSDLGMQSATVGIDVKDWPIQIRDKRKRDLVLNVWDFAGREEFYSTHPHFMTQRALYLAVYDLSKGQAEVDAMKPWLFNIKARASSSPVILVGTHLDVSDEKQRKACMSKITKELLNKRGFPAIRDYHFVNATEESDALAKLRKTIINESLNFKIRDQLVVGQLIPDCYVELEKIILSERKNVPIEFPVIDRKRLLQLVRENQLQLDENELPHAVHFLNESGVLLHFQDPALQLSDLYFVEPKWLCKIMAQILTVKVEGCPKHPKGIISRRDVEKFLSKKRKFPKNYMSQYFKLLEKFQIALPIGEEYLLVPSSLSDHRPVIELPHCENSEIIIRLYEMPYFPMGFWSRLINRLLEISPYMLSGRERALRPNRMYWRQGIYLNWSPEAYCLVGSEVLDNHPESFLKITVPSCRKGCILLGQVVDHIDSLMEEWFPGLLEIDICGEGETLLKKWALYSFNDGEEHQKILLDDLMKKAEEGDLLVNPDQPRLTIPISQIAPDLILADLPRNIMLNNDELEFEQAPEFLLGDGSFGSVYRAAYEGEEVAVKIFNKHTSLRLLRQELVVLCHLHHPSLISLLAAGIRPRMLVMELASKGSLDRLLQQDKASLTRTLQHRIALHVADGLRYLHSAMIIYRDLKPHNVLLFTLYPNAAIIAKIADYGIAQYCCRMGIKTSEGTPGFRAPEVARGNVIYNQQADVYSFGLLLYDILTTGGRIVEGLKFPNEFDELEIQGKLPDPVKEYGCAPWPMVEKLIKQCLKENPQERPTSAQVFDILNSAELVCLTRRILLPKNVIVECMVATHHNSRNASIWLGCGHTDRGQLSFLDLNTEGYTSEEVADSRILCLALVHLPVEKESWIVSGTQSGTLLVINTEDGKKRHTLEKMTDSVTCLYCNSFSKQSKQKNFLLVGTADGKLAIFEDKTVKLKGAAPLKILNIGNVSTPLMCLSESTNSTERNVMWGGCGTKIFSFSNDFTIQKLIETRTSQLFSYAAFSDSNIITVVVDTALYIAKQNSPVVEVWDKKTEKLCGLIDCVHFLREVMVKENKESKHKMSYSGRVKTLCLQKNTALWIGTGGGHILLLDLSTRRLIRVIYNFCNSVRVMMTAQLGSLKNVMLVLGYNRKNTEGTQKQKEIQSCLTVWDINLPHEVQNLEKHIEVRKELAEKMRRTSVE
The entries below are paired with their reported IC50.

substance_smiles | result
O=C(c1ccc(Nc2nc(NC3CCCCC3)c3cc[nH]c3n2)c2c1CCO2)N1CCOCC1 | < 100 nM
CCCNc1nc(Nc2ccc(C(=O)N3CCOCC3)c3c2OCCO3)nc2[nH]cc(C(F)(F)F)c12 | < 100 nM
CNc1nc(Nc2ccc(C(=O)N3C[C@@H]4C[C@H]3CO4)c3c2OCCO3)nc2[nH]cc(C(F)(F)F)c12 | < 100 nM
COc1cc(P2(=O)CCN(C3CC3)CC2)ccc1Nc1nc(NC2CC2)c2c(C(F)(F)F)c[nH]c2n1 | < 100 nM
CC[C@@H](C)Nc1nc(Nc2ccc(S(C)(=O)=O)cc2OC)nc2[nH]cc(C(F)(F)F)c12 | < 100 nM
COc1cc(S(=O)(=O)N2CCOCC2)ccc1Nc1nc(NC(C)C)c2c(C(F)(F)F)c[nH]c2n1 | < 100 nM
CCNc1nc(Nc2ccc(P3(=O)CCN(C4CCOCC4)CC3)cc2OC)nc2[nH]cc(C(F)(F)F)c12 | < 100 nM
CCCNc1nc(Nc2ccc(C(=O)N3CCC(N4CCOCC4)CC3)c3c2OCCO3)nc2[nH]cc(C(F)(F)F)c12 | < 100 nM

### Prompt Tell us which IC50 value is on record for N#Cc1c[nH]c2nc(Nc3ccc(C(=O)N4CCC(N5CCOCC5)CC4)c4c3OCCO4)nc(NC3CC3)c12
### Response < 100 nM

### Prompt Tell us which IC50 value is on record for COc1cc(S(=O)(=O)N2CCOCC2)ccc1Nc1nc(NC2CCCC2)c2c(C#N)c[nH]c2n1
### Response 301 to 1000 nM

### Prompt Tell us which IC50 value is on record for CC(C)Nc1nc(Nc2ccc(C(=O)N3CCC(N4CCOCC4)CC3)c3c2OCCO3)nc2[nH]cc(C#N)c12
### Response < 100 nM

### Prompt Tell us which IC50 value is on record for COc1cc(S(C)(=O)=O)ccc1Nc1nc(NC2CCC2)c2c(C#N)c[nH]c2n1
### Response < 100 nM

### Prompt Tell us which IC50 value is on record for CNc1nc(Nc2ccc(C(=O)N3CC[C@@H](N4CCOCC4)C3)c3c2OCC3)nc2[nH]cc(C(F)(F)F)c12
### Response < 100 nM

### Prompt Tell us which IC50 value is on record for O=C(c1ccc(Nc2nc(NC3CCC3)c3c(C(F)(F)F)c[nH]c3n2)c2c1OCCO2)N1CCN(C2COC2)CC1
### Response < 100 nM

### Prompt Tell us which IC50 value is on record for CCc1nc(Nc2ccc(P3(=O)CCN(C4CC4)CC3)cc2OC)nc2[nH]cc(C(F)(F)F)c12
### Response 101 to 300 nM

### Prompt Tell us which IC50 value is on record for CCc1nc(Nc2ccc(C(=O)N3CCC(N4CCOCC4)CC3)c3c2OCCO3)nc2[nH]cc(C(F)(F)F)c12
### Response < 100 nM

### Prompt Tell us which IC50 value is on record for C=CCNc1nc(Nc2ccc(S(=O)(=O)N3CCOCC3)cc2OC)nc2[nH]cc(C#N)c12
### Response < 100 nM

### Prompt Tell us which IC50 value is on record for COc1cc(S(=O)(=O)N2CCOCC2)ccc1Nc1nc(NC2CCC2)c2c(C#N)c[nH]c2n1
### Response < 100 nM

### Prompt Tell us which IC50 value is on record for COc1cc(S(C)(=O)=O)ccc1Nc1nc(NCC2CCCC2)c2c(C#N)c[nH]c2n1
### Response < 100 nM
